The values you see were collected from ChEMBL document CHEMBL1201862.

# Tested on: NCI-H522
# assay: NCI tumour cell line growth inhibition, 48 h
The source made the active and inactive calls. No stated cut-off is given here; in the data, active = GI50 up to about 1.1 µM and inactive = higher.
Respond only with the outcome that fits, drawn from TRUE (active), FALSE (inactive)

# outcome recorded in this test, key = COC(=O)C1=CO[C@@H](OC2CC(CO)C(O)C(O)C2O)[C@@H]2[C@@H](C)[C@@H](OC(=O)/C=C/c3ccccc3)[C@@H](O)[C@H]12.COC(=O)C1=CO[C@@H](OC2CC(CO)C(O)C(O)C2O)[C@@H]2[C@@H](C)[C@@H](OC(=O)c3ccccc3)[C@@H](O)[C@H]12 (stereo partly drawn)
FALSE

What call does the record list for CC(NC(=O)C(CC(=O)OCc1ccccc1)NC(=O)OCc1ccccc1)c1ccccc1 (stereo not drawn) ?
FALSE

Record request — test call for CCNCC(=O)O[C@]1(CC)C(=O)OCc2c1cc1n(c2=O)Cc2cc3ccccc3nc2-1
TRUE

# outcome recorded in this test, key = O=C1N(Cc2ccccc2)C2CSCC2N1Cc1ccccc1 (stereo not drawn)
FALSE

// param item: CC1(O)CC23CC(O)C4(O)C(CC(O)C4(C)C)C(C)(O)C2CCC1C3O (stereo not drawn) ; yields the recorded call
FALSE

Recorded test call requested for O=C(Nc1nnc(S)[nH]1)C(=O)C1C(=O)Nc2ccccc2[S+]1[O-] (stereo not drawn)
FALSE

# outcome recorded in this test, key = COc1cc(-c2cc(=O)c3cc4c(=O)cc(-c5cc(OC)c(OC)c(OC)c5)oc4cc3o2)cc(OC)c1OC
FALSE

Tell me the recorded outcome of this test for COC(=O)NC(Nc1ccc(Cl)cc1Cl)(C(F)(F)F)C(F)(F)F .
FALSE

====

# Test system: OVCAR-3
# assay: NCI tumour cell line growth inhibition, 48 h
The source made the active and inactive calls. Cut-off read from the data, not from the text of the source: active = GI50 up to about 1.1 µM and inactive = higher.
Lab note: assign the record to one of Y (active), N (inactive)

Please share the test call associated with COc1ccc(NC(=O)CC(=O)n2nc(-c3ccccc3)c(/N=N/c3ccc(C)cc3)c2-c2ccccc2)cc1 .
N

Please indicate how the test categorized CCOC(=O)C1=C(OC(OCC)C(C)[Se]c2ccccc2)CCC1 (stereo not drawn) .
N

What is the recorded call for this compound in the test? COc1cc(O)c(C(C)=O)c(O)c1
N

Could you check what this test reported for C=C1c2nc3ccccc3n2C=C(c2ccc(C)cc2)N1c1ccccc1 ?
N

// param item: COc1ccccc1NC(=O)CC(=O)n1nc(C)c(/N=N/c2ccccc2F)c1C ; yields the recorded call
N

Short answer needed: outcome of this test for COc1cc2cc3c4c(cc(OC)c(OC)c4c2cc1OC)CCN3C(=O)OCCBr ?
N

How was Oc1ccccc1C(Sc1nc2ccccc2s1)Sc1nc2ccccc2s1 classified in this test?
N

Could you kindly confirm the outcome this assay logged for C/C=C/[C@H]1O[C@@](O)([C@@H](C)[C@H](O)[C@H](C)[C@H]2OC(=O)/C(OC)=C/C(C)=C/[C@@H](C)[C@@H](O)[C@@H](CC)[C@@H](O)[C@H](C)C/C(C)=C/C=C/[C@@H]2OC)C[C@H](OC2CC(O)C(OC(N)=O)C(C)O2)[C@@H]1C (stereo partly drawn) ?
Y

====

# Test system: SNB-19
# assay: NCI tumour cell line growth inhibition, 48 h
Activity calls are given as the source filed them. Rule as the data show it: active = GI50 up to about 1.1 µM and inactive = higher.
measured attribute: GI50

GI50 for O=C1C2C(C(=O)N1c1ccccc1)C1(Br)c3ccccc3C2(Br)C2C(=O)N(c3ccccc3)C(=O)C21 (stereo not drawn) is > 31.6 µM (inactive)

Just so you know, measured GI50 for CC(CC(N)C(=O)O)C(=O)O (stereo not drawn) came out at > 100 µM (inactive)

GI50 measured on c1cc2c3c(c1)c1cc4c(cc1c[n+]3CC2)OCO4 [ANHYDROLYCORINIUM CHLORIDE] = 1.17 µM (inactive)

Briefly, GI50 measured for O=C(/C=C/c1ccc([N+](=O)[O-])cc1)c1nc2ccccc2[nH]1 : > 93.3 µM (inactive)

Form: compound = COC(=O)/C=C1\CCCN1CCc1cc2c(cc1CC#N)OCO2 ; GI50 = 60 µM (inactive)

The recorded GI50 for entry N#Cc1c(Cl)cccc1Oc1ccc(S(=O)(=O)N/C(=N\O)Nc2ccc(Cl)cc2)cc1 equals 16.3 µM (inactive)

GI50 recorded for this compound, C[C@H](O)C1CC(Cn2nnc3c(N)ncnc32)C1(C)C (stereo partly drawn) , is > 100 µM (inactive)

Per the records, this compound ( COC(=O)C1=CO[C@@H](OC2CC(CO)C(O)C(O)C2O)[C@@H]2[C@@H](C)[C@@H](OC(=O)/C=C/c3ccccc3)[C@@H](O)[C@H]12.COC(=O)C1=CO[C@@H](OC2CC(CO)C(O)C(O)C2O)[C@@H]2[C@@H](C)[C@@H](OC(=O)c3ccccc3)[C@@H](O)[C@H]12 (stereo partly drawn) ) has GI50 equal to 10 µM (inactive)

====

# Test system: DLD-1
# assay: NCI tumour cell line growth inhibition, 48 h
Activity calls are given as the source filed them. No stated cut-off is given here; in the data, active = GI50 up to about 1.1 µM and inactive = higher.
Kindly supply the reported GI50 values for the records listed here.

Measured GI50 of COc1ccc2c(c1)C1C(CO2)C(c2ccccc2)=NN1c1ccccc1 (centres undefined) : > 100 µM (inactive)

Form: compound = CCCCCCCCCCCCCC(=O)OCC1OC(OC)C(NC(=O)N(CCCl)N=O)C(O)C1O (centres undefined) ; GI50 = 20.8 µM (inactive)

Form field GI50, entry COc1ccc(NC(=O)CC(=O)n2nc(-c3ccccc3)c(/N=N/c3ccc(C)cc3)c2-c2ccccc2)cc1 : > 79.3 µM (inactive)

Per the record, N#CCCN(CCC#N)c1ccc(/C=C(/NC(=O)c2cc([N+](=O)[O-])ccc2Cl)C(=O)N=[N+]=[N-])cc1 has GI50 of > 100 µM (inactive)

So, O=S(=O)(c1ccccc1)C1CN2OC1(S(=O)(=O)c1ccccc1)CC21CCCCC1 (centres undefined) ? Its GI50 was > 100 µM (inactive)

For Cn1cnnc1Sc1c([N+](=O)[O-])ncn1C the compound record lists GI50 as 38.5 µM (inactive)

GI50 for CO[C@@H]1C=C[C@@]23c4cc5c(cc4C(=O)O[C@H]2CN(C)[C@H]3C1)OCO5 is > 100 µM (inactive)

Field GI50 (entry Nc1nc[n+](Cc2ccccc2)c2ncn(Cc3ccccc3)c12 ) reads 80.2 µM (inactive)

Please fill in: GI50 reported for CCCN(CCCC(NC(C)=O)C(=O)NCc1ccccc1)C(=O)NCCCl (centres undefined) = > 100 µM (inactive)

====

# System: MOLT-4
# assay: NCI tumour cell line growth inhibition, 48 h
Calls of active or inactive are those of the source. No stated cut-off is given here; in the data, active = GI50 up to about 1.1 µM and inactive = higher.
Use one of these outcomes when replying: 1 (active), 0 (inactive)

Can you look up the reported call for CCOC(=O)/C(C[C@H]1OC(C)(C)O[C@@H]1[C@H]1COC(C)(C)O1)=N/O for me?
0

What did this assay record as the result for C=CC1(CCC(Br)C(C)(C)Cl)CO1 (stereo not given) ?
0

Given CCC1C(NC(=O)OC)C(=O)N1[C@@H](C)c1ccccc1 (stereo not given in full) , state the outcome it received in this test.
0

Recorded test outcome, item CCN(CC)CCNc1ccc2nnn3c4ccc(C)cc4c(=O)c1c23
0

# fetch the recorded call for Cc1c(CCCl)c(=O)n2c([nH]c3ccccc32)c1C#N here
1

How was COc1ccc(NC(=O)CC(=O)n2nc(-c3ccccc3)c(/N=N/c3ccc(C)cc3)c2-c2ccccc2)cc1 classified in this test?
0

I would be grateful if you could indicate the recorded call for CC1(C)CC(=O)C2=C(C1)OC1=C(CC(C)(C)CC1=O)C2c1ccccc1Cl (stereo not given) .
0

Give the logged outcome of this assay for the following compound: COc1ccc(C(=C(Cl)c2ccccc2)c2ccc(OC)cc2)cc1
0

Recorded test call requested for [O-][n+]1c2cc(CBr)c(CBr)cc2[n+]([O-])c2c(O)cccc21
1

Could you kindly confirm the outcome this assay logged for O=[N+]([O-])c1cccc2nc3ccccc3c(NCCO)c12 ?
1

====

# Tested on: OVCAR-5
# assay: NCI tumour cell line growth inhibition, 48 h
Active and inactive are the calls of the source. Rule as the data show it: active = GI50 up to about 1.1 µM and inactive = higher.
// one of active, inactive, no free text

What was the test verdict on O=C1NC(=S)NC(=O)C1=CC1CC1 ?
inactive

What call does the record list for CCN(CC)C(=O)CCNC(C)Cc1c[nH]c2ccccc12 (configuration not stated) ?
inactive

Record request — test call for COC(=O)c1c(CC(Cc2ccc3c(c2)CCCC3)C(=O)O)ccc2c1CCCC2 (configuration not stated)
inactive

Called result for Cc1ccc(S(=O)(=O)N/N=C2/C3CC4CCC2C4C3)cc1 (configuration not stated)
inactive

Can you look up the reported call for CCCCCCCCCCCCCCCCS(=O)(=O)c1ccc(NN)cc1 for me?
inactive

Hey, what did the test say about O=C1C=C(Nc2ccc(S(=O)(=O)Nc3ncccn3)cc2)c2ccccc2C1=O ?
inactive

Query: recorded result category for COc1ccc(/C=N/n2c(C)n[nH]c2=O)cc1 in this test
inactive

Please share the test call associated with N#Cc1c(-c2ccc(Cl)cc2)cc(-c2ccc(Nc3ccnc4cc(Cl)ccc34)cc2)nc1N .
inactive

Record lookup: outcome of this test for O=C(CCC(C(=O)OCc1ccccc1)C(=O)OCc1ccccc1)Nc1ccc(OCc2ccccc2)cc1 ?
inactive

I'd appreciate the recorded outcome for O=C(C(O)c1cn(Cc2ccccc2)c2ccccc12)N1CCCCC1 (configuration not stated) from this test.
inactive

Fill in: this test's call for CC1CCC(=O)C(C(=O)CC2CC(=O)NC(=O)C2)C1 (configuration not stated) is ___
inactive

Could you check what this test reported for CSc1nc2c3ccccc3ccn2c1C(=O)N/N=C/c1ccccc1 ?
inactive

Hey, what did the test say about CN(CCNC(=O)c1cn(C)c2c1ccc1cc(Cl)ccc12)CCNC(=O)c1cn(C)c2c1ccc1cc(Cl)ccc12 ?
inactive

State the result this test recorded for C[C@]12CCC(O)CC1=CC[C@@H]1[C@@H]2CC[C@]2(C)C(O)[C@H](n3ccnc3)C[C@@H]12 (some centres not stated) .
inactive

Query: recorded result category for CCOC(=O)Oc1cc2c(c(OC)c1OC)-c1ccc(SC)c(=O)cc1C(NC(=O)C(F)(F)F)CC2 (configuration not stated) in this test
active

What was the test verdict on O=C1CC(Cc2n[nH]c3c2CCCC3)CC(=O)N1 ?
inactive

# outcome recorded in this test, key = O=C1C(/N=N/c2ccc(-c3nc4ccccc4[nH]3)cc2)NC(=S)N1c1ccccc1 (configuration not stated)
inactive

Any idea what this test logged for CC(O)=C1C(=O)CCC1=O ?
inactive

Outcome logged for COC(=O)[C@]1(Cc2ccc3ccccc3c2)CCCCCCN1C(=O)c1ccccc1 in this assay:
inactive

What is the recorded call for this compound in the test? O=c1c2ccccc2oc2c1ccc1ncccc12
inactive

Please state the recorded outcome for this compound: C[N+]1(CC[N+]2(C)CCCC2c2cccnc2)CCCC1c1cccnc1 (configuration not stated)
inactive

// param item: Clc1ccc(CSC2=NCCN2)cc1Cl ; yields the recorded call
inactive
